Cited source: ChEMBL document CHEMBL1156778

Test system: Mycobacterium tuberculosis
Assay: Antitubercular activity against Mycobacterium tuberculosis H37Rv in anaerobic condition after 7 days by low oxygen recovery assay
Type: functional
Conditions: 168 h
Listed next: entries and their corresponding MIC.
Numbers only here, please. The scale is µM.

[[record]]
structure_as_smiles = "O=[N+]([O-])c1cn2c(n1)OC[C@@H](OCc1cccc(-c3cccc(OC(F)(F)F)c3)c1)C2"
result_number = 3.5

[[record]]
structure_as_smiles = "Cc1cccc(C)c1-c1ccc(CO[C@@H]2COc3nc([N+](=O)[O-])cn3C2)cc1"
result_number = 0.93

[[record]]
structure_as_smiles = "O=[N+]([O-])c1cn2c(n1)OC[C@@H](OCc1ccc(-c3cccc(OCc4ccccc4)c3)cc1)C2"
result_number = 0.88

[[record]]
structure_as_smiles = "O=[N+]([O-])c1cn2c(n1)OC[C@@H](OCc1cccc(-c3cccc(C(F)(F)F)c3)c1)C2"
result_number = 2.9

[[record]]
structure_as_smiles = "CN(C)CCOc1cccc(-c2ccc(CO[C@@H]3COc4nc([N+](=O)[O-])cn4C3)cc2)c1"
result_number = 18


Enquiry: Quote Mycobacterium tuberculosis MIC for entry O=[N+]([O-])c1cn2c(n1)OC[C@@H](OCc1cccc(-c3ccc(OC(F)(F)F)cc3)c1)C2 .
Return: 2.2

Enquiry: Quote Mycobacterium tuberculosis MIC for entry O=[N+]([O-])c1cn2c(n1)OC[C@@H](OCc1ccc(-c3ccc(OCCCO)cc3)cc1)C2 .
Return: 2.2

Enquiry: Quote Mycobacterium tuberculosis MIC for entry O=[N+]([O-])c1cn2c(n1)OC[C@@H](OCc1ccc(-c3ccccc3Oc3ccccc3)cc1)C2 .
Return: 1.8

###

Test system: Mycobacterium tuberculosis
Experiment: Antitubercular activity against Mycobacterium tuberculosis H37Rv in anaerobic condition after 7 days by low oxygen recovery assay
Type: functional
Conditions: 168 h
Labels assigned by MIC range: low (below 0.9 µM), middle (0.9 µM to below 3 µM), high (3 µM or more)

[[record]]
structure_as_smiles = "O=[N+]([O-])c1cn2c(n1)OC[C@@H](OCc1ccc(-c3ccc(CNc4ccccc4)cc3)cc1)C2"
category = "low"

[[record]]
structure_as_smiles = "COc1cc(OC)cc(-c2ccc(CO[C@@H]3COc4nc([N+](=O)[O-])cn4C3)cc2)c1"
category = "low"

[[record]]
structure_as_smiles = "COc1ccccc1-c1ccc(CO[C@@H]2COc3nc([N+](=O)[O-])cn3C2)cc1"
category = "middle"


Enquiry: Form: Item = CSc1ccc(-c2cccc(CO[C@@H]3COc4nc([N+](=O)[O-])cn4C3)c2)cc1 ; Class = ?
Return: middle

Enquiry: Form: Item = O=[N+]([O-])c1cn2c(n1)OC[C@@H](OCc1ccc(-c3cccc(OCCO)c3)cc1)C2 ; Class = ?
Return: high

Enquiry: Form: Item = O=[N+]([O-])c1cn2c(n1)OC[C@@H](OCc1ccc(-c3ccc(Cl)c(O)c3)cc1)C2 ; Class = ?
Return: middle

Enquiry: Form: Item = O=[N+]([O-])c1cn2c(n1)OC[C@@H](OCc1ccc(-c3ccc(OCCO)cc3)cc1)C2 ; Class = ?
Return: high

Enquiry: Form: Item = O=[N+]([O-])c1cn2c(n1)OC[C@@H](OCc1ccc(-c3ccc(Cl)c(C(F)(F)F)c3)cc1)C2 ; Class = ?
Return: middle

Enquiry: Form: Item = COc1ccc(-c2ccc(CO[C@@H]3COc4nc([N+](=O)[O-])cn4C3)cc2)cc1 ; Class = ?
Return: high
